Test: chemical genetic growth profiling, strain panel (AID 1159580);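 further: tested at 20 µM; growth read once vehicle control cultures reached saturation at 30 °C; 1 = growth at the plate median or of vehicle wells; lower values mean less growth of the strain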
Details: S. cerevisiae deletion strains, growth OD, locus YDL005C, strain med2, hits give low values
The whole screen tested about 5,500 compounds, of which about 2,000 (36%) were called active. Another 18% or so got no clear call; they are omitted. The list shows a part of the results.
I'd be grateful if you could share measured normalized growth for these entries.
Answers are plain numbers.

Check out these entries, answers already filled in.
>  <Molecule>
ClC(Cl)=C(c1ccc(Cl)cc1)c1ccc(Cl)cc1

>  <normalized growth>
0.979

$$$$
>  <Molecule>
CC(C)c1ccc2c(c1O)CC[C@H]1C3=C(CC[C@]21C)C(=O)OC3

>  <normalized growth>
0.961

$$$$
>  <Molecule>
COCCOC(=O)C1=C(C)NC(C)=C(C(=O)OC(C)C)C1c1cccc([N+](=O)[O-])c1 (stereo unspecified)

>  <normalized growth>
1.01

$$$$

Give normalized growth for each of the items listed below.
1. COC(=O)C1=C(C)NC(C)=C(C(=O)OC)C1c1ccccc1[N+](=O)[O-]
2. COc1cc([C@@H]2c3cc4c(cc3[C@H](OC(C)=O)[C@H]3COC(=O)[C@H]23)OCO4)cc(OC)c1OC
3. Cn1nnnc1SCC1=C(C(=O)O)N2C(=O)C(NC(=O)C(O)c3ccccc3)C2SC1 (stereo unspecified)
4. C=CCc1ccccc1OCC(O)CNC(C)C (stereo unspecified)
5. CC1(C)O[C@@H]2CC3C4C[C@H](F)C5=CC(=O)C=C[C@]5(C)[C@@]4(F)[C@@H](O)C[C@]3(C)[C@]2(C(=O)CO)O1 (stereo partly specified)

Result ::
[0.974, 1.01, 0.972, 0.995, 1.02]

Give normalized growth for each of the items listed below.
1. COc1ccc(C(=O)/C=C/c2ccccc2)cc1
2. C=CCCCCCCCCCCCC(O)CC(O)CO (stereo unspecified)
3. CCCCCCc1ccc(O)cc1O
4. CC(C)(Oc1ccc(Cl)cc1)C(=O)O
5. OC1C(O)C(O)C(O)C(O)C1O (stereo unspecified)
6. COc1c(O)cccc1O
7. CC(=O)CC(c1ccccc1)c1c(O)c2ccccc2oc1=O (stereo unspecified)

Result ::
1: 0.992; 2: 0.987; 3: 0.988; 4: 1.02; 5: 1; 6: 1.03; 7: 0.999

Give normalized growth for each of the items listed below.
1. CC(C)=CCc1c2c(c(O)c3c(=O)c(O)c(-c4ccccc4)oc13)C=CC(C)(C)O2
2. O=C1CN2Cc3c(ccc(Cl)c3Cl)N=C2N1
3. O=c1cc(-c2ccc(O)cc2)oc2ccc(O)cc12
4. COc1c2c(cc3c1OCO3)CC[N+](C)=C2

Result ::
0.981
0.96
0.969
1

====

Experiment: chemical genetic growth profiling, strain panel (AID 1159580);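 further: tested at 20 µM; growth read once vehicle control cultures reached saturation at 30 °C; 1 = growth at the plate median or of vehicle wells; lower values mean less growth of the strain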
Conditions: S. cerevisiae deletion strains, growth OD, locus YDR226W, strain ADK1, hits give low values
About 2,000 (36%) of roughly 5,500 compounds were called active. Inconclusive results (about 18%) are left out. The list shows a part of the results.
Measured attribute: normalized growth

>  <Compound>
Cc1ccc(C(=O)O/N=C(/N)CSc2ncccc2C(F)(F)F)cc1

>  <Value measured>
1.02 (inactive)

$$$$
>  <Compound>
Cc1cc(C(=O)N(c2ccccc2)C(C)C2CC2)c(Cl)cc1Cl (stereo unspecified)

>  <Value measured>
0.971 (inactive)

$$$$
>  <Compound>
CC(O)(CNCc1ccc(Cl)cc1)CSc1ccccc1Cl (stereo unspecified)

>  <Value measured>
0.98 (inactive)

$$$$
>  <Compound>
CC(C)c1ccc(-c2cc(=O)c3ccccc3o2)cc1

>  <Value measured>
0.931 (inactive)

$$$$

Give normalized growth for each of the items listed below.
1. N#CCC(=O)c1cccc(CSc2ccccc2Cl)c1
2. Cc1csc2ncnc(N/N=C\c3ccccc3Cl)c12

Result ::
0.964 (inactive)
0.969 (inactive)
